# condition.notes: 353.15 K; 101.33 kPa; Liquid; Vibrating tube method
quantity.name: mass density (kg/m3)

CC/C=C\C/C=C\C/C=C\CCCCCCCC(=O)OCC [ethyl 9,12,15-octadecatrienoate]    848.9
CC/C=C\C/C=C\C/C=C\CCCCCCCC(=O)OC [methyl (Z,Z,Z)-9,12,15-octadecatrienoate]    857.6
CCCCCCCCCCCCCCCCCCCC(=O)OCC [ethyl eicosanoate]    816.6
CCCCCCCCCCCCCCCCCCCCCC(=O)OC [methyl docosanoate]    820.6
CCCCCC/C=C\CCCCCCCC(=O)OC [methyl (Z)-9-hexadecenoate]    823.5
CCCCCCCC/C=C\CCCCCCCCCC(=O)OC [methyl cis-11-eicosenoate]    831.1
CCCCCCCCCCCCCCCCCCCCCCCC(=O)OC [methyl tetracosanoate]    820.3
CCCCC/C=C\C/C=C\CCCCCCCC(=O)OCC [ethyl linoleate]    838.8
CCCCCCCC/C=C\CCCCCCCCCCCC(=O)OC [methyl (Z)-13-docosenoate]    828.6
CCCCCCCCCCCCCCCCCCCC(=O)OC [methyl eicosanoate]    820.8

====

# condition.notes: 298.15 K; 101.33 kPa; Liquid; Vibrating tube method
quantity.name: mass density (kg/m3)

CCCCCC/C=C\CCCCCCCC(=O)OC [methyl (Z)-9-hexadecenoate]    865.2
CC/C=C\C/C=C\C/C=C\CCCCCCCC(=O)OCC [ethyl 9,12,15-octadecatrienoate]    889.5
CCCCC/C=C\C/C=C\CCCCCCCC(=O)OCC [ethyl linoleate]    878.8
CC/C=C\C/C=C\C/C=C\CCCCCCCC(=O)OC [methyl (Z,Z,Z)-9,12,15-octadecatrienoate]    898.2
CCCCCCCC/C=C\CCCCCCCCCCCC(=O)OC [methyl (Z)-13-docosenoate]    867.1
CCCCCCCC/C=C\CCCCCCCCCC(=O)OC [methyl cis-11-eicosenoate]    870.2

====

# condition.notes: 343.15 K; 101.33 kPa; Liquid; Vibrating tube method
quantity.name: mass density (kg/m3)

CCCCCCCC/C=C\CCCCCCCCCC(=O)OC [methyl cis-11-eicosenoate]    838.2
CC/C=C\C/C=C\C/C=C\CCCCCCCC(=O)OCC [ethyl 9,12,15-octadecatrienoate]    856.2
CCCCCCCCCCCCCCCCCCCCCC(=O)OC [methyl docosanoate]    827.5
CCCCCCCCCCCCCCCCCCCC(=O)OCC [ethyl eicosanoate]    823.5
CCCCCCCC/C=C\CCCCCCCCCCCC(=O)OC [methyl (Z)-13-docosenoate]    835.5
CCCCCC/C=C\CCCCCCCC(=O)OC [methyl (Z)-9-hexadecenoate]    831.1
CC/C=C\C/C=C\C/C=C\CCCCCCCC(=O)OC [methyl (Z,Z,Z)-9,12,15-octadecatrienoate]    864.9
CCCCC/C=C\C/C=C\CCCCCCCC(=O)OCC [ethyl linoleate]    846
CCCCCCCCCCCCCCCCCCCC(=O)OC [methyl eicosanoate]    827.8
CCCCCCCCCCCCCCCCCCCCCCCC(=O)OC [methyl tetracosanoate]    827.1

====

# condition.notes: 318.15 K; 101.33 kPa; Liquid
quantity.name: viscosity (mPa·s)

A = CC/C=C\C/C=C\C/C=C\CCCCCCCC(=O)OC [methyl (Z,Z,Z)-9,12,15-octadecatrienoate]
B = CCCCCCCC/C=C\CCCCCCCCCCCC(=O)OC [methyl (Z)-13-docosenoate]
Smaller viscosity value, A vs B ? Provide the label of your selected option as the answer.
A
(A: 2.675 mPa·s, B: 5.402 mPa·s)

1 = CCCCC/C=C\C/C=C\CCCCCCCC(=O)OCC [ethyl linoleate]
2 = CCCCCCCCCCCCCCCCCCCC(=O)OCC [ethyl eicosanoate]
Between these two entries, 1 and 2 , state which has the higher viscosity. Answer = label.
2
(2: 5.657 mPa·s, 1: 3.161 mPa·s)

====

# condition.notes: 373.15 K; 101.33 kPa; Liquid
quantity.name: viscosity (mPa·s)

CC/C=C\C/C=C\C/C=C\CCCCCCCC(=O)OC [methyl (Z,Z,Z)-9,12,15-octadecatrienoate]    1.253
CCCCCCCCCCCCCCCCCCCC(=O)OCC [ethyl eicosanoate]    2.039
CC/C=C\C/C=C\C/C=C\CCCCCCCC(=O)OCC [ethyl 9,12,15-octadecatrienoate]    1.295
CCCCCCCCCCCCCCCCCCCC(=O)OC [methyl eicosanoate]    1.959
CCCCCCCCCCCCCCCCCCCCCC(=O)OC [methyl docosanoate]    2.317

I = CCCCCCCC/C=C\CCCCCCCCCC(=O)OC [methyl cis-11-eicosenoate]
II = CCCCCCCCCCCCCCCCCCCCCCCC(=O)OC [methyl tetracosanoate]
I'd appreciate it if you could identify which of I and II has the greater viscosity. Kindly give the label for the entry you pick.
II

====

# condition.notes: 313.15 K; 101.33 kPa; Liquid; Vibrating tube method
quantity.name: mass density (kg/m3)

CCCCCCCC/C=C\CCCCCCCCCC(=O)OC [methyl cis-11-eicosenoate]    859.5
CC/C=C\C/C=C\C/C=C\CCCCCCCC(=O)OC [methyl (Z,Z,Z)-9,12,15-octadecatrienoate]    887
CCCCCCCC/C=C\CCCCCCCCCCCC(=O)OC [methyl (Z)-13-docosenoate]    856.5
CCCCCC/C=C\CCCCCCCC(=O)OC [methyl (Z)-9-hexadecenoate]    853.8
CC/C=C\C/C=C\C/C=C\CCCCCCCC(=O)OCC [ethyl 9,12,15-octadecatrienoate]    878.3
CCCCC/C=C\C/C=C\CCCCCCCC(=O)OCC [ethyl linoleate]    867.8

====

# condition.notes: 338.15 K; 101.33 kPa; Liquid
quantity.name: viscosity (mPa·s)

// solved cases for viscosity follow
CCCCCCCC/C=C\CCCCCCCCCCCC(=O)OC [methyl (Z)-13-docosenoate]    3.548
CCCCCCCCCCCCCCCCCCCC(=O)OC [methyl eicosanoate]    3.517
CCCCCCCCCCCCCCCCCCCCCCCC(=O)OC [methyl tetracosanoate]    5.139

I = CCCCCCCCCCCCCCCCCCCC(=O)OCC [ethyl eicosanoate]
II = CC/C=C\C/C=C\C/C=C\CCCCCCCC(=O)OCC [ethyl 9,12,15-octadecatrienoate]
Between I and II , which one has the lower reported viscosity value? Respond with the label that goes with your answer.
II

====

# condition.notes: 293.15 K; 101.33 kPa; Liquid
quantity.name: viscosity (mPa·s)

Consider the reported viscosity for these compounds:
CC/C=C\C/C=C\C/C=C\CCCCCCCC(=O)OC [methyl (Z,Z,Z)-9,12,15-octadecatrienoate]    4.484
CCCCC/C=C\C/C=C\CCCCCCCC(=O)OCC [ethyl linoleate]    5.423
CCCCCC/C=C\CCCCCCCC(=O)OC [methyl (Z)-9-hexadecenoate]    4.107
CCCCCCCC/C=C\CCCCCCCCCCCC(=O)OC [methyl (Z)-13-docosenoate]    10.66

I = CC/C=C\C/C=C\C/C=C\CCCCCCCC(=O)OCC [ethyl 9,12,15-octadecatrienoate]
II = CCCCCCCC/C=C\CCCCCCCCCC(=O)OC [methyl cis-11-eicosenoate]
Compare I and II by numeric viscosity and name the larger one. To answer, give the label that identifies your chosen option.
II
(II: 8.667 mPa·s, I: 4.401 mPa·s)

====

# condition.notes: 288.15 K; 101.33 kPa; Liquid; Vibrating tube method
quantity.name: mass density (kg/m3)

CCCCCCCC/C=C\CCCCCCCCCC(=O)OC [methyl cis-11-eicosenoate]    877.5
CCCCCCCC/C=C\CCCCCCCCCCCC(=O)OC [methyl (Z)-13-docosenoate]    874.3
CCCCCC/C=C\CCCCCCCC(=O)OC [methyl (Z)-9-hexadecenoate]    872.8
CC/C=C\C/C=C\C/C=C\CCCCCCCC(=O)OCC [ethyl 9,12,15-octadecatrienoate]    897
CC/C=C\C/C=C\C/C=C\CCCCCCCC(=O)OC [methyl (Z,Z,Z)-9,12,15-octadecatrienoate]    905.7
CCCCC/C=C\C/C=C\CCCCCCCC(=O)OCC [ethyl linoleate]    886.3

====

# condition.notes: 358.15 K; 101.33 kPa; Liquid; Vibrating tube method
quantity.name: mass density (kg/m3)

CCCCCCCC/C=C\CCCCCCCCCC(=O)OC [methyl cis-11-eicosenoate]    827.6
CCCCCCCC/C=C\CCCCCCCCCCCC(=O)OC [methyl (Z)-13-docosenoate]    825.1
CCCCCCCCCCCCCCCCCCCC(=O)OCC [ethyl eicosanoate]    813.2
CC/C=C\C/C=C\C/C=C\CCCCCCCC(=O)OCC [ethyl 9,12,15-octadecatrienoate]    845.3
CCCCCC/C=C\CCCCCCCC(=O)OC [methyl (Z)-9-hexadecenoate]    819.8
CCCCCCCCCCCCCCCCCCCC(=O)OC [methyl eicosanoate]    817.3
CCCCCCCCCCCCCCCCCCCCCC(=O)OC [methyl docosanoate]    817.2
CCCCCCCCCCCCCCCCCCCCCCCC(=O)OC [methyl tetracosanoate]    816.9
CCCCC/C=C\C/C=C\CCCCCCCC(=O)OCC [ethyl linoleate]    835.2
CC/C=C\C/C=C\C/C=C\CCCCCCCC(=O)OC [methyl (Z,Z,Z)-9,12,15-octadecatrienoate]    853.9
